Tested on: Heliothis virescens
Assay: Heliothis virescens (tobacco budworm), eggs on artificial diet
Type: in vivo
Settings: 120 h, application rate of 200 ppm, egg mortality, larval mortality, growth inhibition 5 days after infestation
assayMetric: pest or weed control at 200 ppm

Fill in pest or weed control at 200 ppm for each of the 4 compounds listed.
1. CCNS(=O)(=O)CSc1ccc(C2=CSC(c3cc(Cl)cc(Cl)c3)(C(F)(F)F)C2)cc1Br (centres unmarked) [Compound D2]
2. NS(=O)(=O)CS(=O)(=O)c1ccc(C2=NOC(c3cc(Cl)cc(Cl)c3)(C(F)(F)F)C2)cc1Br (centres unmarked) [Compound A4]
3. CCN(CC)S(=O)(=O)CSc1ccc(C2=NOC(c3cc(Cl)cc(Cl)c3)(C(F)(F)F)C2)cc1Br (centres unmarked) [Compound A2]
4. O=S(=O)(CSc1ccc(C2=NO[C@@](c3cc(Cl)cc(Cl)c3)(C(F)(F)F)C2)cc1Br)NCC(F)(F)F [Compound B2]

1. ≥ 80%
2. ≥ 80%
3. ≥ 80%
4. ≥ 80%
